# CONDITION_PARAMETERS: 313.9 K; 101.33 kPa; Liquid; Pulse-echo method
± gives the expanded uncertainty stated by the source.
READOUT: speed of sound

Parameter requested: speed of sound. Apply to each item below.
1. CCCC(=O)[O-].C[NH2+]CCO [N-methyl-2-hydroxyethylammonium butanoate]
2. CC(C)C(=O)[O-].C[NH2+]CCO [2-hydroxy-N-methylethanaminium isobutyrate]

Response line:
["1565.2 ± 2.1 m/s", "1566.8 ± 2.1 m/s"]

Parameter requested: speed of sound. Apply to each item below.
1. CCCCC(=O)[O-].C[NH2+]CCO [2-hydroxy-N-methylethanaminium pentanoate]
2. CCC(=O)[O-].C[NH2+]CCO [2-hydroxy-N-methylethanaminium propionate]
3. C[NH2+]CCO.O=C[O-] [2-hydroxy-N-methylethanaminium formate]

Response line:
1: 1499.9 ± 2.1 m/s; 2: 1643.5 ± 2.1 m/s; 3: 1784.6 ± 2.2 m/s

====

Give speed of sound for every item shown.
# CONDITION_PARAMETERS: 332.41 K; 101.33 kPa; Liquid; Pulse-echo method
One number for each entry, in m/s.

> print(dat)
                                   molecule  unit.abbrev  endpoint.value
1  CCCCC(=O)[O-].C[NH2+]CCO [2-hydroxy-N-methylethanaminium pentanoate]          m/s          1443.2
2  CCCC(=O)[O-].C[NH2+]CCO [N-methyl-2-hydroxyethylammonium butanoate]          m/s          1507.2
3  CC(C)C(=O)[O-].C[NH2+]CCO [2-hydroxy-N-methylethanaminium isobutyrate]          m/s          1514.1
4  CCC(=O)[O-].C[NH2+]CCO [2-hydroxy-N-methylethanaminium propionate]          m/s            1588

Attention now turns to another entry.
Prompt line: Which measured speed of sound value corresponds to C[NH2+]CCO.O=C[O-] [2-hydroxy-N-methylethanaminium formate] ?
Response line: 1748.9

====

Give speed of sound for every item shown.
# CONDITION_PARAMETERS: 286.15 K; 101.33 kPa; Liquid; Pulse-echo method
Give bare numbers, in m/s.

Worked examples, 4 compounds total:
> print(dat)
                                   compound  unit.abbrev  endpoint.value
1  CCCC(=O)[O-].C[NH2+]CCO [N-methyl-2-hydroxyethylammonium butanoate]          m/s          1654.2
2  CC(C)C(=O)[O-].C[NH2+]CCO [2-hydroxy-N-methylethanaminium isobutyrate]          m/s          1645.9
3  C[NH2+]CCO.O=C[O-] [2-hydroxy-N-methylethanaminium formate]          m/s          1838.9
4  CCCCC(=O)[O-].C[NH2+]CCO [2-hydroxy-N-methylethanaminium pentanoate]          m/s          1587.9

Attention now turns to another entry.
Prompt line: Which measured speed of sound value corresponds to CCC(=O)[O-].C[NH2+]CCO [2-hydroxy-N-methylethanaminium propionate] ?
Response line: 1726.2

====

Give mass density for every item shown.
# CONDITION_PARAMETERS: 291.9 K; 101.33 kPa; Liquid; Vibrating tube method
One number for each entry, in kg/m3.

> print(dat)
                                   compound       readout  endpoint.value
1  CCC(=O)[O-].C[NH2+]CCO [2-hydroxy-N-methylethanaminium propionate]  mass density         1075.33

Parameter requested: mass density. Apply to each item below.
1. CC(=O)[O-].C[NH2+]CCO [N-methyl-2-hydroxyethylammonium acetate]
2. C[NH2+]CCO.O=C[O-] [2-hydroxy-N-methylethanaminium formate]
3. CCCC(=O)[O-].C[NH2+]CCO [N-methyl-2-hydroxyethylammonium butanoate]
4. CC(C)C(=O)[O-].C[NH2+]CCO [2-hydroxy-N-methylethanaminium isobutyrate]
5. CCCCC(=O)[O-].C[NH2+]CCO [2-hydroxy-N-methylethanaminium pentanoate]

Response line:
1104.51
1131.74
1043.48
1047.31
1020.45

Reference source for all entries: the NIST ThermoML archive (doi:10.1021/je900550v)
